# log10 of EC50 per record follows
Molecular target: T1, CLDN9-GFP expressed on engineered HEK293T cells (human, UniProt O95484 1-217)
T1 construct: whole, on cells; also called HEK293T CLDN9-mGFP; Artificial CLDN9+; not shown: GFP tag
T1 sequence (looked up): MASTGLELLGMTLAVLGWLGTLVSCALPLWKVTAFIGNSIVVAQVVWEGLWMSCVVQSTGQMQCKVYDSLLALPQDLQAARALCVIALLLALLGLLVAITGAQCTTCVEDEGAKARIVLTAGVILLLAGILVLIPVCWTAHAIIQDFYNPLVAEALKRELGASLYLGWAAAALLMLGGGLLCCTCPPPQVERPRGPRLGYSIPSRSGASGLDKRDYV
Assay: FACS dose curve, labelled mAb, HEK293T CLDN9-mGFP cells
Outcome Measure: log10 of EC50 (log10 of the value in µM)

Binder: AB10 (antibody, V domains shown, Full-length IgG (ExpiCHO)) VH: QIQLVQSGPALKKPGETVKISCKASGYTFTDYSMHWIKQAPGKGLKWMGWISTETGEPTYADGFKGRFDFSLETSADTAYLSINNLTNEDTATYFCTRGLWSSFAYWGQGTLVTVSA VL: DVVMTQTPLSLPVSLGDQASISCRASQSLVHSNGNTYLHWFLQKPGQSPKLLIYKVSNRFSGVPDRFSGSGSRTDFTLKISRVEAEDLGVYFCSQITHVPYTFGGGTKLEIK
log10 of EC50: -0.61
--
Binder: AB1 (antibody, V domains shown, Full-length IgG (ExpiCHO)) VH: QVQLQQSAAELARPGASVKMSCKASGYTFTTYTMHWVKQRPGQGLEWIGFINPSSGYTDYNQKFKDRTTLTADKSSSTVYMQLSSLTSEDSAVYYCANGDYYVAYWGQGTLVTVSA VL: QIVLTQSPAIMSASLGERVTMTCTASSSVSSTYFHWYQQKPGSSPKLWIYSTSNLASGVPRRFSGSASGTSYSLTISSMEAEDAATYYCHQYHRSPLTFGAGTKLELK
log10 of EC50: 0.44
--
Binder: AB4 (antibody, V domains shown, Full-length IgG (ExpiCHO)) VH: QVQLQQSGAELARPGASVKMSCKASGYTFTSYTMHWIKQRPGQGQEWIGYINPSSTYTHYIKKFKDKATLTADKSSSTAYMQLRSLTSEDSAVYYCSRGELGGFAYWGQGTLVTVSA VL: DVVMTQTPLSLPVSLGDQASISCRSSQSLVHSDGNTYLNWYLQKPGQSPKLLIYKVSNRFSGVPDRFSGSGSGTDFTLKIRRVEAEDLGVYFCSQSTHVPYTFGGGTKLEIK
log10 of EC50: 0.27
--
Binder: AB12 (antibody, V domains shown, Full-length IgG (ExpiCHO)) VH: EVKLMESGGDLVKPGGSLKLSCAASGFTFSSYAMSWVRQTPEKRLEWVASIRSGGTTYYPDSVKGRFTISRDNARNILYLRMSSLRSEDTAIYYCAKVGGNPYPMDYWGQGTSVTVSS VL: DIQMIQSPSSMFASLGDRVSLSCRASQDIGGNLDWYQQKPGGTIKLLIYSTSNLNSGVPSRFSGSGSGSDYSLTITSLESEDFADYYCLQRNAYPLTFGAGTKLELK
log10 of EC50: 0.39
--
Binder: AB5 (antibody, V domains shown, Full-length IgG (ExpiCHO)) VH: EVQLQQSGPELVKPGASVKMSCKASGYIFTHYIMHWVKQKPGQGLEWIGCINPYNDGTKYNEKFKGKATLTSDKSSSTAYMELSSLTSEDSAVYYCARYYGYPYYSMDYWGQGTSVTVSS VL: DVLMTQTPLSLPVSLGDQPSISCRSSQSIVHSNGNTYLDWYLQKPGQSPKLLIYKVSNRFSGVPDRFSGSGSGTDFTLKISRVEAEDLGVYYCFQGSHVPFTFGSGTRLEIK
log10 of EC50: -1.60

Attribution: patent US20220177583A1
